Tested on: U251 CNS
Where a SMILES comes first, the peptide text is derived from it. [ ]: non-standard residue; d: D form. The star is where a group is joined. ξ: configuration not given here. NMeN = CN[C@@H](CC(N)=O)C(=O)O; NMeV = CN[C@H](C(=O)O)C(C)C; ξNMeV = CNC(C(=O)O)C(C)C; Boc = CC(C)(C)OC(=O)*; ξNMeA = CNC(C)C(=O)O
Allowed answers: active, inactive

1) COc1ccc(-c2nc3ncccn3c2/C=C/C(=O)c2cc(OC)c(OC)c(OC)c2)cc1 ... inactive
2) C=CCN(CC=C)C(=O)c1cc(C)nc2c1c(=O)n(-c1ccccc1)c(=O)n2CC(O)CN1CCN(c2ncccn2)CC1 (configuration not stated) ... inactive
3) COC(=O)C(C)N(C)C(=O)[C@H](CC(N)=O)N(C)C(=O)[C@@H]1CCCN1C(=O)[C@H](C(C)C)N(C)C(=O)C(C(C)C)N(C)C(=O)[C@@H](NC(=O)OC(C)(C)C)C(C)C (some centres not stated) (Boc-V[ξNMeV][NMeV]P[NMeN][ξNMeA]-OMe) ... inactive
4) COc1cc2c(cc1OCCCCCCN1CCN(c3ncnc4ccccc34)CC1)N=CC1CCCN1C2=O (configuration not stated) ... active
5) CCN=c1cc2sc3cc(NCC)c(C)cc3nc-2cc1C ... inactive
6) CC1(C)CC(n2cnc(-c3ccc(F)cc3)c2-c2ccnc(N)n2)CC(C)(C)N1 ... inactive

[ask] Fill in: this test's call for `CC/C(=C(/CC)c1ccc(O)cc1)c1ccc([O-])cc1.CC/C(=C(/CC)c1ccc(O)cc1)c1ccc([O-])cc1.O=C([CH-]C(=O)c1ccccc1)c1ccccc1.O=C([CH-]C(=O)c1ccccc1)c1ccccc1.[Ti+4]` is ___
[reply] inactive

[ask] Per the assay record, what outcome was assigned to `c1cn2cc(-c3ccc4ncn(C5CCCCC5)c4c3)nc(-c3ccc4c(c3)ncn4C3CCCCC3)c2n1` ?
[reply] inactive

[ask] Per the records of this test, what outcome belongs to `C=CCN1C=CC(=O)[C@H](O[Si](C)(C)C(C)(C)C)[C@@H]1/C=C/c1ccccc1` ?
[reply] inactive

[ask] Kindly provide the recorded test outcome for the following compound: `O=C(N/N=C/c1ccccc1Cl)c1ccccc1Nc1ccnc(C(F)(F)F)c1`
[reply] inactive

[ask] Assay result, entry `CC[O-].CC[O-].O=C1C(c2ccccc2)=C([O-])c2ccccc21.O=C1C(c2ccccc2)=C([O-])c2ccccc21.[Ti+4]` — outcome?
[reply] inactive

[ask] Check the results log: what was the call for `NC1CCCCC1N.O=S(=O)([O-])CCCN1CCOCC1.O=S(=O)([O-])CCCN1CCOCC1.[Pt+4]` ?
[reply] inactive

Data origin: PubChem BioAssay (NCI)
